# MEASURED TARGET: T1, cynomolgus BLyS (full length, arginine to histidine at position 132) on CHO-K1 cells (cynomolgus, UniProt Q9Y275 1-285 (human entry))
# T1 construct: also called cyno BLyS; CHO-K1 cynoBLyS
# T1 chain: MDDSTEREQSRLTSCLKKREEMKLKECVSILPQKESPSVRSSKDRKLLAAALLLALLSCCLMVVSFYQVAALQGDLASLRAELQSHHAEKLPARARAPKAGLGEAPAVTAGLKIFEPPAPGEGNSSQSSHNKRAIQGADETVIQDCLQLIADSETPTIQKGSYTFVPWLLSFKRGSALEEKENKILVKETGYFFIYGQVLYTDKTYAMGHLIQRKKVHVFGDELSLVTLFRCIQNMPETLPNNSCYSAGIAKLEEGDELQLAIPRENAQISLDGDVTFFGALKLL
# ASSAY SUMMARY: flow cytometry, CHO-K1 cynoBLyS cells, antibody 2.67 nM
met means recorded MFI is 1000 MFI or above; not met means it is below 1000 MFI.

BINDER	CATEGORY
L1D12 (antibody, V domains shown, From a human naive scFv phage library; also called human BLyS antibody L1D12; LID12) VH: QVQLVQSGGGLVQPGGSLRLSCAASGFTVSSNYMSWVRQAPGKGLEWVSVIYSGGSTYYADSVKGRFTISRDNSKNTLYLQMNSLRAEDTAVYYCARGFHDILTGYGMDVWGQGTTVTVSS VL: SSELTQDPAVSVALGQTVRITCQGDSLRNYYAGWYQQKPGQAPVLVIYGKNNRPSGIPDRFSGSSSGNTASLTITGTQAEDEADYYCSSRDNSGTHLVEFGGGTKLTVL	met

## Task Check if MFI >= 1000 MFI (inclusive). Item: 93C6F10D3 (antibody, V domains shown, Mouse hybridoma monoclonal antibody purified on Protein G) VH: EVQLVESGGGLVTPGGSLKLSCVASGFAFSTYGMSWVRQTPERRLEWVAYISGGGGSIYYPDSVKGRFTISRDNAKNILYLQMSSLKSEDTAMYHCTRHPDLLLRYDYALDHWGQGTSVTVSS VL: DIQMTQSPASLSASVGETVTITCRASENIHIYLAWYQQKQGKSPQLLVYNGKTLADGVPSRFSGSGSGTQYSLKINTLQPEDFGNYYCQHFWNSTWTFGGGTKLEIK
## Result not met

FYI, the data here is from patent US20210347873A1.
